Data origin, for the record: the RNAGym collection of RNA variant scans (doi:10.1126/science.aae0568)

Please go through the items and note down their yeast fitness.
B1: tRNA (parent)
chain: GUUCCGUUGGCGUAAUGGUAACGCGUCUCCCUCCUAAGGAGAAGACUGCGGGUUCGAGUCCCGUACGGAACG

Variants of: B1
procedure-summary: yeast fitness relative to wild type (ratio to wild type); higher = fitter; tRNA-Arg(CCU), competitive growth, 37 C, YPD
Variants at the floor of the assay were thinned out.
Answer field: number only, no words.

-- ask Please list yeast fitness recorded for the variant U2A U32A A69C
-- reply 0.612

-- ask Please list yeast fitness recorded for the variant A15C C30A A42C G56A A57U
-- reply 0.578

-- ask Please list yeast fitness recorded for the variant U8C C29A
-- reply 0.664

-- ask Please list yeast fitness recorded for the variant G17A G50C
-- reply 0.647

-- ask Please list yeast fitness recorded for the variant C5U A15U G63A A70U
-- reply 0.807

-- ask Please list yeast fitness recorded for the variant G12A A40G C46A
-- reply 0.752

-- ask Please list yeast fitness recorded for the variant C11G C29U A69U
-- reply 0.543

-- ask Please list yeast fitness recorded for the variant C5U C31A G56A
-- reply 0.562

-- ask Please list yeast fitness recorded for the variant A21C C61G
-- reply 0.585

-- ask Please list yeast fitness recorded for the variant U26C C61G
-- reply 0.591

-- ask Please list yeast fitness recorded for the variant U2G U19A A21G A65U G67C
-- reply 0.543

-- ask Please list yeast fitness recorded for the variant G6A G12A U16C
-- reply 0.537

-- ask Please list yeast fitness recorded for the variant G18A U28C
-- reply 0.739

-- ask Please list yeast fitness recorded for the variant G9A G25U A36U G56C A65C
-- reply 0.717

-- ask Please list yeast fitness recorded for the variant C5G C29U C66U
-- reply 0.57

-- ask Please list yeast fitness recorded for the variant A45C U47C C49U
-- reply 0.806

-- ask Please list yeast fitness recorded for the variant G12A U47A G63A A69U
-- reply 0.554

-- ask Please list yeast fitness recorded for the variant U2C U35G A40C
-- reply 0.587

-- ask Please list yeast fitness recorded for the variant U59A C66G
-- reply 0.669

-- ask Please list yeast fitness recorded for the variant C31U G38C
-- reply 0.845

-- ask Please list yeast fitness recorded for the variant C4G G17A A69C
-- reply 0.525

-- ask Please list yeast fitness recorded for the variant A21U C30U
-- reply 0.646

-- ask Please list yeast fitness recorded for the variant G18C C29G A45G C66U
-- reply 0.613

-- ask Please list yeast fitness recorded for the variant A21C A57G
-- reply 0.708

-- ask Please list yeast fitness recorded for the variant C46A G56A C61A
-- reply 0.603

-- ask Please list yeast fitness recorded for the variant C30G A45C C46U
-- reply 0.612

-- ask Please list yeast fitness recorded for the variant U13A C30U
-- reply 0.802

-- ask Please list yeast fitness recorded for the variant C31A A40U A42G
-- reply 0.606

-- ask Please list yeast fitness recorded for the variant U16G U32C
-- reply 0.915

-- ask Please list yeast fitness recorded for the variant G17A A42C A70C
-- reply 0.688

-- ask Please list yeast fitness recorded for the variant C33A C46G C60U
-- reply 0.76

-- ask Please list yeast fitness recorded for the variant C5A C24U U64C
-- reply 0.639

-- ask Please list yeast fitness recorded for the variant U3C G25A A45G
-- reply 0.59
